- assay remarks: Binding affinity to the corticosteroid-binding globulin (CBG) receptor.
endpoint name: Log K
When you answer, write just the number.

Data request: Using the record for C[C@]12CCC(=O)C=C1CC[C@@H]1[C@@H]2CC[C@@]2(C)[C@H]1CC[C@]2(O)C(=O)CO , report its Log K.
Data returned: 7.88

Data request: Dear colleague, I am looking for the recorded Log K of the following compound: C[C@]12CCC(=O)C=C1CC[C@@H]1[C@@H]2[C@@H](O)C[C@]2(C=O)[C@@H](C(=O)CO)CC[C@@H]12
Data returned: 6.28

Data request: Entry under review: C[C@]12C[C@@H](O)[C@H]3[C@@H](CCC4=CC(=O)CC[C@@]43C)[C@@H]1CC[C@@H]2C(=O)CO . Reported Log K?
Data returned: 6.78

Data request: State the recorded Log K for this entry: C[C@]12C=CC(=O)C=C1CC[C@@H]1[C@@H]2[C@@H](O)C[C@@]2(C)[C@H]1CC[C@]2(O)C(=O)CO
Data returned: 6.72
